molecular target: Rho-associated protein kinase 2 (Homo sapiens, UniProt O75116)
Sequence (O75116 whole entry): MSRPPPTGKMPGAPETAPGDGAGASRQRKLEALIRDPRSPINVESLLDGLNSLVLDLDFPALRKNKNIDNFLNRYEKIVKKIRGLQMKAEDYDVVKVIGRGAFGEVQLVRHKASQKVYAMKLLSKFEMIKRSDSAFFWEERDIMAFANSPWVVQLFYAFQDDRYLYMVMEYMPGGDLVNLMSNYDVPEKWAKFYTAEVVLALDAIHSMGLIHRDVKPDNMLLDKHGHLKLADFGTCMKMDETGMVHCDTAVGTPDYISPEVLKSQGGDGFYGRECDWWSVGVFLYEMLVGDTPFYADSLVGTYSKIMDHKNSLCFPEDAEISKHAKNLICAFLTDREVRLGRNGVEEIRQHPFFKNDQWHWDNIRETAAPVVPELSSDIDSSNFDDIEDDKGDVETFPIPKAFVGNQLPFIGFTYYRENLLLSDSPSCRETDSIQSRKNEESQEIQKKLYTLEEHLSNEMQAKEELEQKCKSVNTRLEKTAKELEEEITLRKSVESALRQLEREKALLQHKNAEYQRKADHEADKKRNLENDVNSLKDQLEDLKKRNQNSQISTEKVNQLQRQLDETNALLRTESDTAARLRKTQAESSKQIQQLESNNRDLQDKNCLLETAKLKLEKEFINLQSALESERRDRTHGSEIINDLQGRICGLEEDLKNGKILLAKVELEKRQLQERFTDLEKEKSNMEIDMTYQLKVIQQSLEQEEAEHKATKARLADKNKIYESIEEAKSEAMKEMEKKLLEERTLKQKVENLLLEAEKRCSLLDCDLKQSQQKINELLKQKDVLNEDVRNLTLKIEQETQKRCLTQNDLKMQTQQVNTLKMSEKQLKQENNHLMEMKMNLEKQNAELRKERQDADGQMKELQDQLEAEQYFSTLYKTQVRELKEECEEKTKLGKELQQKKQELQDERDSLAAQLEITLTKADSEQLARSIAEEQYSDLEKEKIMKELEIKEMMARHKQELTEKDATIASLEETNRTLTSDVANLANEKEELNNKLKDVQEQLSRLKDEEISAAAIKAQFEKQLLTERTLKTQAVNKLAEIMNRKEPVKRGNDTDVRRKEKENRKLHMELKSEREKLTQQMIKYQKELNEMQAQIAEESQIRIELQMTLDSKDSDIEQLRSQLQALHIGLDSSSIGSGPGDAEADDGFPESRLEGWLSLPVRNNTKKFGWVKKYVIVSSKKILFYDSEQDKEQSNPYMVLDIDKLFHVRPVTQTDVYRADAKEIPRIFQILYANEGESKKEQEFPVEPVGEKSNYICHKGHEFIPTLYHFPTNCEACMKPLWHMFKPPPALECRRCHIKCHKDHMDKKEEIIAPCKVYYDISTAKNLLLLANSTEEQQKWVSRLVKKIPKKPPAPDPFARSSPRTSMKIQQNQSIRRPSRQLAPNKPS
pIC50: −log10 of the molar value.
READOUT: pIC50

• CN(C)CCN(Cc1ccc(F)cc1)C(=O)Nc1cccc2cnccc12 = < 6.00
